biological target: Heat shock protein HSP90 (Homo sapiens) (UniProt P07900+P08238); test: Inhibition of HSP90 in human MCF7 cells assessed as induction of Raf protein degradation at 0.5 to 5 times antiproliferative IC50 level after 24 hrs by Western blotting method; assay type: cell-based
Active and inactive are the calls of the source. The rule behind the calls is not given here.
assay readout: inhibition

Example entries and their recorded answers appear below.
test smiles | assay result
CN1CCC(Oc2ccc(-c3ccc(NC(=O)c4ccc5ccccc5c4)cc3)cc2)CC1 | Active
CN1CCC(Oc2ccc(-c3ccc(NC(=O)c4cccc(-c5ccccc5)c4)cc3)cc2)CC1 | Active
CN1CCC(Oc2ccc(-c3ccc(NC(=O)c4cccc5ccccc45)cc3)cc2)CC1 | Active
CN1CCC(Oc2ccc(-c3ccc(NC(=O)c4ccc(Br)cc4)cc3)cc2)CC1 | inactive
COc1ccc(C(=O)Nc2ccc(-c3ccc(OC4CCN(C)CC4)cc3)cc2)cc1 | Active

Incoming: Can you share its inhibition? I mean this molecule: CN1CCC(Oc2ccc(-c3ccc(NC(=O)c4ccc(Cl)cc4)cc3)cc2)CC1
Outgoing: inactive

Incoming: # lookup: inhibition of CN1CCC(Oc2ccc(-c3ccc(NC(=O)c4ccc(I)cc4)cc3)cc2)CC1
Outgoing: inactive

Incoming: I'd like to know its inhibition. The molecule in question is CN1CCC(Oc2ccc(-c3ccc(NC(=O)c4cc5ccccc5[nH]4)cc3)cc2)CC1
Outgoing: Active
